Test system: TNFα
Test: cells
Assay type: cell-based, human
Details: Homo sapiens, Monocyte, LPS-stimulated human monocytes, TNFα content; read-out: EC50 TNF
pEC50: −log10 of the molar value.
Measurement type: pEC50

Molecule	Measurement type	Meas value
CC(C)(O)[C@H](F)CNC(=O)c1cnc(-c2ccc3cc(C#N)cnn23)cc1Nc1nc(-c2ccccc2)cs1 [Example 363]	pEC50	6.48
CC(C)Nc1cc(-c2ccc3cc(C#N)cnn23)ncc1C(=O)NCCS(C)(=O)=O [Example 92]	pEC50	7.10
CC(C)(O)[C@H](F)CNC(=O)c1cnc(-c2ccc3cc(C#N)cnn23)cc1Nc1cnccn1 [Example 185]	pEC50	7.34
CC(C)Nc1cc(-c2ccc3cc(C#N)cnn23)ncc1C(=O)NCC#N [Example 462]	pEC50	7.17
COC(=O)NCC12CC(Nc3cc(-c4ccc5cc(C#N)cnn45)ncc3C(=O)NC[C@@H](F)C(C)(C)O)(C1)C2 [Example 547]	pEC50	7.55
[2H]C([2H])([2H])NC(=O)c1cnc(-c2ccc3cc(C#N)cnn23)cc1NC12CCC(O)(CC1)CC2 [Example 358]	pEC50	6.91
CC(C)(O)[C@H](F)CNC(=O)c1cnc(-c2ccc3cc(C#N)cnn23)cc1Nc1ccc2c(c1)CC(=O)N2 [Example 650]	pEC50	7.80
CC(C)(O)[C@H](F)CNC(=O)c1cnc(-c2ccc3cc(C#N)cnn23)cc1NCCS(C)(=O)=O [Example 102]	pEC50	6.50
CC(C)Nc1cc(-c2ccc3cc(C#N)cnn23)ncc1C(=O)N[C@H]1CC[C@H](NC(=O)C(F)(F)F)CC1 [Example 127]	pEC50	6.95
CC1(C)C(=O)Nc2ccc(Nc3cc(-c4ccc5cc(C#N)cnn45)ncc3C(=O)NC[C@@H](F)C(C)(C)O)cc21 [Example 653]	pEC50	6.70
CC1(C(=O)N[C@H]2CC[C@H](Nc3cc(-c4ccc5cc(C#N)cnn45)ncc3C(=O)NC[C@@H](F)C(C)(C)O)CC2)CC1 [Example 423]	pEC50	7.03
N#CCNC(=O)c1cnc(-c2ccc3cc(C#N)cnn23)cc1NC1CC1 [Example 461]	pEC50	7.24
CC(C)Nc1cc(-c2ccc3cc(C#N)cnn23)ncc1C(=O)NCC1CCS(=O)(=O)CC1 [Example 121]	pEC50	6.44
CC(C)Nc1cc(-c2ccc3cc(C#N)cnn23)ncc1C(=O)N[C@@H]1CC[C@@H](O)C1 [Example 188]	pEC50	6.56
CC(C)Nc1cc(-c2ccc3cc(C#N)cnn23)ncc1C(=O)NNCC(C)(C)O [Example 69]	pEC50	6.29
